biological target: CYP11B1 (steroid 11-hydroxylase) (Homo sapiens, UniProt P15538); construct: the NCI-H295R cells have CYP11B2 (aldosterone synthase) and CYP11B1 (steroid 11-hydroxylase); assay: Inhibition of cortisol secretion in NCI-H295R cells; conditions: human adrenocortical carcinoma NCI-H295R cells, 24 hours with cell stimulant
Sequence (P15538 25-503): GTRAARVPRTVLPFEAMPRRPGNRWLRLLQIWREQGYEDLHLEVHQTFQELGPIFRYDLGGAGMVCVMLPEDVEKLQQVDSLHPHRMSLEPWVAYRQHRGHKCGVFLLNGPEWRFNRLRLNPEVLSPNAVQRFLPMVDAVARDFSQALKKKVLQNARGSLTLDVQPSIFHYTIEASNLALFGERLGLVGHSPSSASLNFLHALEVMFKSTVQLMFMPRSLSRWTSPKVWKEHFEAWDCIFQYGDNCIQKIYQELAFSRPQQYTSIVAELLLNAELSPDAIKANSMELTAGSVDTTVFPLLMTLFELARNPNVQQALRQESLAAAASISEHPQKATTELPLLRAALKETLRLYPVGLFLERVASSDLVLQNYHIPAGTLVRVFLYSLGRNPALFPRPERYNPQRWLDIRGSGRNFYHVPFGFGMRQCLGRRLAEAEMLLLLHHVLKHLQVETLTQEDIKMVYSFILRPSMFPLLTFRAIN
pIC50: −log10 of the molar value.
measured-quantity: pIC50

>>> print(df.to_string())
                                   compound  reported_measurement
0  CCS(=O)(=O)Nc1cncc(-c2c(COC)c3ccc(Cl)cc3n2C)c1 [Example 238]                < 6.00
1  CCNS(=O)(=O)c1cncc(-c2cc3ccccc3n2C)c1 [Example 242]                < 6.00
2  CN(C)S(=O)(=O)Nc1cncc(-c2cc3ccccc3n2C)c1 [Example 228]                < 6.00
